Biological target: Choline Kinase alpha enzyme (Homo sapiens)
Construct: hChoKα1(M1-V457) (NP_001268); GST (N); made in house; host or cells: E. coli BL21(DE3)
Sequence (P35790 whole entry): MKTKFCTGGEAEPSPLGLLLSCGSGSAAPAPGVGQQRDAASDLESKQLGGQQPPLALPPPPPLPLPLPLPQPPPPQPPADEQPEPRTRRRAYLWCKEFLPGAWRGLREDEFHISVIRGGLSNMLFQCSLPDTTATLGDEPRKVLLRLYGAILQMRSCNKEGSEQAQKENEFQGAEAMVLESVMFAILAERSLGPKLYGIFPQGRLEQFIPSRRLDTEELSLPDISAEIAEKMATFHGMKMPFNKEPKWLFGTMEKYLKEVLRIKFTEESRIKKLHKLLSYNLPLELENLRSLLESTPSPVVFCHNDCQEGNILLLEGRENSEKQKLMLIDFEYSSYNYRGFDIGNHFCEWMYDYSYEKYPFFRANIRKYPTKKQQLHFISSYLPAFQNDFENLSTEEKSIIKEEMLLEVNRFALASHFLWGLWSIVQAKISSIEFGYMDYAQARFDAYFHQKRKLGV
Assay: Choline Kinase Alpha Inhibition Assay (coupled NADH absorbance)
Assay type: biochemical
Readout kind: IC50

>>> value_reported("O=C(c1ccc(N2CCCC2)cc1)C1CN2CCC1CC2 (stereo not shown) [Compound I-3]")
"< 0.1 µM"
>>> value_reported("CN1CCOc2cc(C(=O)C3CN4CCC3CC4)ccc21 (stereo not shown) [Compound I-5]")
"< 0.1 µM"
>>> value_reported("O=C(c1ccc(-c2ccccc2)cc1)C1CN2CCC1CC2 (stereo not shown) [Compound I-14]")
"1 to 50 µM"

Here is the next item to consider.
Sure, the documented IC50 for CN(C)c1ccc(C(=O)C2CN3CCC2CC3)cc1 (stereo not shown) [Compound I-1] is < 0.1 µM
